Data origin: ChEMBL document CHEMBL1132761

target: Kappa-type opioid receptor (Homo sapiens, UniProt P41145)
Sequence (P41145 whole entry): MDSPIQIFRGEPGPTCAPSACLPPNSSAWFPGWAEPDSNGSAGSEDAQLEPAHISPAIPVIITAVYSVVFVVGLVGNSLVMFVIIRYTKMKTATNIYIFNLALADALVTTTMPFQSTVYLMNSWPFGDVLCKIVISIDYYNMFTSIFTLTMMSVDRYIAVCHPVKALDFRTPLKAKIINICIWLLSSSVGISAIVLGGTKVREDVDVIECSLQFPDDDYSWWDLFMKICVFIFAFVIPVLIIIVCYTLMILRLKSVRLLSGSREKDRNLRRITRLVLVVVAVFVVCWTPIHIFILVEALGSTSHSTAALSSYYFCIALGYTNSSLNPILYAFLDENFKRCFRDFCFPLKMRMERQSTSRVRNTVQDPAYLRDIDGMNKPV
Non-standard residues stand in square brackets, D forms with d. Residues, ends and D or L forms follow the SMILES beside them. Dmt = Cc1cc(O)cc(C)c1C[C@H](N)C(=O)O; Tic = O=C(O)[C@@H]1Cc2ccccc2CN1
Lab note: anything with IC50 below 8 µM is marked YES; values at 8 µM or higher are marked NO.

INSERT INTO measurements (compound, study_system, label_class) VALUES
  ('Cc1cc(O)cc(C)c1C[C@H](N)C(=O)N1Cc2c(cc(Br)c(O)c2Br)C[C@H]1C(=O)O', 'Kappa-type opioid receptor (Homo sapiens, UniProt P41145)', 'NO'),
  ('Cc1cc(O)cc(C)c1CC(N)C(=O)N1Cc2cc(-c3ccsc3)ccc2C[C@H]1C(=O)O (some centres not stated)', 'Kappa-type opioid receptor (Homo sapiens, UniProt P41145)', 'YES'),
  ('COc1ccc(-c2ccc3c(c2)CN(C(=O)C(N)Cc2c(C)cc(O)cc2C)[C@H](C(=O)O)C3)cc1 (some centres not stated)', 'Kappa-type opioid receptor (Homo sapiens, UniProt P41145)', 'NO'),
  ('COc1cc2c(cc1-c1ccc(F)cc1)C[C@@H](C(=O)O)N(C(=O)C(N)Cc1c(C)cc(O)cc1C)C2 (some centres not stated)', 'Kappa-type opioid receptor (Homo sapiens, UniProt P41145)', 'NO'),
  ('COc1c(Br)cc2c(c1Br)CN(C(=O)[C@@H](N)Cc1c(C)cc(O)cc1C)[C@H](C(=O)O)C2', 'Kappa-type opioid receptor (Homo sapiens, UniProt P41145)', 'NO'),
  ('Cc1cc(O)cc(C)c1C[C@H](N)C(=O)N1Cc2ccccc2C[C@H]1C(=O)O (H-[Dmt]-[Tic]-OH)', 'Kappa-type opioid receptor (Homo sapiens, UniProt P41145)', 'NO'),
  ('COc1ccc2c(c1)CN(C(=O)C(N)Cc1c(C)cc(O)cc1C)[C@H](C(=O)O)C2 (some centres not stated)', 'Kappa-type opioid receptor (Homo sapiens, UniProt P41145)', 'NO'),
  ('COc1ccc2c(c1)CN(C(=O)[C@@H](N)Cc1c(C)cc(O)cc1C)[C@H](C(=O)O)C2', 'Kappa-type opioid receptor (Homo sapiens, UniProt P41145)', 'NO'),
  ('Cc1cc(O)cc(C)c1CC(N)C(=O)N1Cc2cc(O)ccc2C[C@H]1C(=O)O (some centres not stated)', 'Kappa-type opioid receptor (Homo sapiens, UniProt P41145)', 'NO'),
  ('COc1ccc(-c2cc3c(cc2OC)CN(C(=O)C(N)Cc2c(C)cc(O)cc2C)[C@H](C(=O)O)C3)cc1 (some centres not stated)', 'Kappa-type opioid receptor (Homo sapiens, UniProt P41145)', 'NO'),
  ('Cc1cc(O)cc(C)c1C[C@@H](N)C(=O)N1Cc2cc(-c3ccccc3)ccc2C[C@H]1C(=O)O', 'Kappa-type opioid receptor (Homo sapiens, UniProt P41145)', 'NO'),
  ('COc1cc2c(cc1-c1ccccc1)C[C@@H](C(=O)O)N(C(=O)C(N)Cc1c(C)cc(O)cc1C)C2 (some centres not stated)', 'Kappa-type opioid receptor (Homo sapiens, UniProt P41145)', 'NO'),
  ('Cc1cc(O)cc(C)c1C[C@@H](N)C(=O)N1Cc2cc(-c3ccc(F)cc3)ccc2C[C@H]1C(=O)O', 'Kappa-type opioid receptor (Homo sapiens, UniProt P41145)', 'NO'),
  ('COc1ccc(-c2ccc3c(c2)CN(C(=O)[C@@H](N)Cc2c(C)cc(O)cc2C)[C@H](C(=O)O)C3)cc1', 'Kappa-type opioid receptor (Homo sapiens, UniProt P41145)', 'NO'),
  ('Cc1cc(O)cc(C)c1CC(N)C(=O)N1Cc2cc(-c3cc4ccccc4o3)ccc2C[C@H]1C(=O)O (some centres not stated)', 'Kappa-type opioid receptor (Homo sapiens, UniProt P41145)', 'NO'),
  ('Cc1cc(O)cc(C)c1C[C@H](N)C(=O)N1Cc2cc(-c3ccccc3)ccc2C[C@H]1C(=O)O', 'Kappa-type opioid receptor (Homo sapiens, UniProt P41145)', 'YES'),
  ('Cc1cc(O)cc(C)c1C[C@H](N)C(=O)N1Cc2cc(-c3ccc(F)cc3)ccc2C[C@H]1C(=O)O', 'Kappa-type opioid receptor (Homo sapiens, UniProt P41145)', 'YES');
